The measured values listed here are drawn from the supplement of paper PMC8728848.

target: Fuc(a1-2)[Gal(a1-3)]Gal(b1-3)GlcNAc(b1-3)GalNAc; test: glycan array binding signal (z-score within array); higher = stronger binding; settings: glycan notation: IUPAC condensed, linker removed
This is one part of a sample in which the strongest signals are shown more often than they occur.

{"columns": ["binder", "glycan array binding signal (z-score)"],
 "data": [
  ["PpFlo2 (Pichia pastoris) (protein) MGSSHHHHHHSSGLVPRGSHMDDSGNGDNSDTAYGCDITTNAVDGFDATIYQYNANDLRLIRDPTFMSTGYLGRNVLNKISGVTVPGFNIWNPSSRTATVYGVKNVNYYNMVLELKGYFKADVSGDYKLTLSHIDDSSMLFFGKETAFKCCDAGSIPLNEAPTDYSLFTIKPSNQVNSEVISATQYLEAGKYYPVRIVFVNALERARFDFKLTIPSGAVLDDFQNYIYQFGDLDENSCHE", -0.288]
]}
